- protocol text: self-splicing fitness, log relative to wild type (ln ratio); higher = more splicing; Tetrahymena group I intron in knt gene, E. coli kanamycin selection, DiMSum; sequences stand for … in CUCUCU…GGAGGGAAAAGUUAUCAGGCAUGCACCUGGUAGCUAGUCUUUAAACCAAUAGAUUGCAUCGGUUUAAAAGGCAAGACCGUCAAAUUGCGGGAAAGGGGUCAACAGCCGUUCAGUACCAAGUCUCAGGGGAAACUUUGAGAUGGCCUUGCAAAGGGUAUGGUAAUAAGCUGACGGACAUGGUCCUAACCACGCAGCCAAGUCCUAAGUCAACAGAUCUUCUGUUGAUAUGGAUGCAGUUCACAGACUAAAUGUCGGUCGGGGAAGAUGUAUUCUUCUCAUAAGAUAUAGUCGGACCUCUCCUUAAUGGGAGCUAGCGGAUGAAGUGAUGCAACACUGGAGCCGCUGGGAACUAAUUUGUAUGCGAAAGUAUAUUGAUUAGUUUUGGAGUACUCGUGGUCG;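 further: selection with 25 µg/mL kanamycin versus none on LB agar overnight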
- recorded conditions: 37 °C
Field: class. Source value: self-splicing fitness (ln). Ranges: low value: < -2; medium value: ≥ -2 and < -1; high value: ≥ -1

>>> print(df.to_string())
         residue_string  classification
0  GCGAAGCAAUAUUACGCCAU       low value
1  ACCCAGCAAUAUUACGAGCG      high value
2  AUCGAGCAAUAUUACGAUAU      high value

For this sequence, which bin applies? UGGCAGCAAUAUUACGGUCG high value

For this sequence, which bin applies? UCAGAGCAAUAUUACGGUCU low value

For this sequence, which bin applies? GUAAAGCAAUAUUACGAAAA high value

For this sequence, which bin applies? UGGCAGCAAUAUUACGUCGC low value

For this sequence, which bin applies? CCUCAGCAAUAUUACGGGCA low value

For this sequence, which bin applies? ACGAAGCAAUAUUACGUUGC medium value

For this sequence, which bin applies? GGAAAGCAAUAUUACGGUCU medium value

For this sequence, which bin applies? UGACAGCAAUAUUACGAACC medium value

For this sequence, which bin applies? UCGAAGCAAUAUUACGCUUG low value

For this sequence, which bin applies? CAUGAGCAAUAUUACGAUCG high value

* * *

- protocol text: self-splicing fitness, log relative to wild type (ln ratio); higher = more splicing; Tetrahymena group I intron in knt gene, E. coli kanamycin selection, DiMSum; sequences stand for … in CUCUCU…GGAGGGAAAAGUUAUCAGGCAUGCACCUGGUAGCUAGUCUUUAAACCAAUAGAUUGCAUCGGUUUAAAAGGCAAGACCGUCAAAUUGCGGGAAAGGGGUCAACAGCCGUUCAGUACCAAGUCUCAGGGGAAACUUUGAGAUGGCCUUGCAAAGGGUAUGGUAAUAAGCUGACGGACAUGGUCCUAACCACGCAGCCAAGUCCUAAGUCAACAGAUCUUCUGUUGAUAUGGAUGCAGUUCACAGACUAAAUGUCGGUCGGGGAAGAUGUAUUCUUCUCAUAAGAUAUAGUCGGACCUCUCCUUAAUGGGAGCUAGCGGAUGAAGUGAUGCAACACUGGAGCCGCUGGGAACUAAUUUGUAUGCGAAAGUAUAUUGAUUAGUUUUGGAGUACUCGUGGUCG
- recorded conditions: 30 °C
reported metric: self-splicing fitness (ln)
Give your answer as a number; write no unit.

// worked examples, self-splicing fitness (ln) included
>>> print(df.to_string())
         residue_string             reported_metric  quantitative_readout
0  AGCGAGCAAUAUUACGCUGA  self-splicing fitness (ln)                  -3.2
1  AAUGAGCAAUAUUACGACAG  self-splicing fitness (ln)                 -3.71
2  AGAAAGCAAUAUUACGUAUG  self-splicing fitness (ln)                 -2.58
3  CUCGAGCAAUAUUACGUACC  self-splicing fitness (ln)                 -2.32
4  GAGGAGCAAUAUUACGAUCC  self-splicing fitness (ln)                 -1.49

Quote self-splicing fitness (ln) reported for GUACAGCAAUAUUACGUCAA please. -1.75

Quote self-splicing fitness (ln) reported for CAAAAGCAAUAUUACGCACA please. -1.75

Quote self-splicing fitness (ln) reported for CAACAGCAAUAUUACGCUCC please. -1.72

* * *

self-splicing fitness (ln) overview
- protocol text: self-splicing fitness, log relative to wild type (ln ratio); higher = more splicing; Tetrahymena group I intron in knt gene, E. coli kanamycin selection, DiMSum; sequences stand for … in CUCUCU…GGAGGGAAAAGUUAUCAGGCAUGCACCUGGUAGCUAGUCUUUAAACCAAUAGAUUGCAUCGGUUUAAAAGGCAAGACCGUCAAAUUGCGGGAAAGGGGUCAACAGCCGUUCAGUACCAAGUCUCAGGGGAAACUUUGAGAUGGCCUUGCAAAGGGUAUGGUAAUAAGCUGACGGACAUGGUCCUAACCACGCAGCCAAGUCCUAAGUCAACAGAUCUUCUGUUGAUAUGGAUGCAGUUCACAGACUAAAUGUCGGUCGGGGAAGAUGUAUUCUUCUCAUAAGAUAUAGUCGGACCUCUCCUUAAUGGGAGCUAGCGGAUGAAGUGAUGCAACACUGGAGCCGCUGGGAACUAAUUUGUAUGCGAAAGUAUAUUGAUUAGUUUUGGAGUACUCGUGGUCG
- recorded conditions: 30 °C
Give your answer as a number; write no unit.

// worked examples, self-splicing fitness (ln) included
>>> df
         residue_string             reported_metric  quantitative_readout
0  GCCUAGCAAUAUUACGGUGC  self-splicing fitness (ln)                 -2.59
1  UUUAAGCAAUAUUACGUGUA  self-splicing fitness (ln)                 -1.88
2  AGCGAGCAAUAUUACGGCAG  self-splicing fitness (ln)                 -1.87
3  GACGAGCAAUAUUACGAAGA  self-splicing fitness (ln)                 -3.31
4  GAUGAGCAAUAUUACGCUCG  self-splicing fitness (ln)                 -3.02

Quote self-splicing fitness (ln) reported for UAAGAGCAAUAUUACGGGUU please. -3.51

Quote self-splicing fitness (ln) reported for AUUGAGCAAUAUUACGGAAU please. -1.59

Quote self-splicing fitness (ln) reported for AGGGAGCAAUAUUACGUUCG please. -3.18

* * *

- protocol text: self-splicing fitness, log relative to wild type (ln ratio); higher = more splicing; Tetrahymena group I intron in knt gene, E. coli kanamycin selection, DiMSum; sequences stand for … in CUCUCU…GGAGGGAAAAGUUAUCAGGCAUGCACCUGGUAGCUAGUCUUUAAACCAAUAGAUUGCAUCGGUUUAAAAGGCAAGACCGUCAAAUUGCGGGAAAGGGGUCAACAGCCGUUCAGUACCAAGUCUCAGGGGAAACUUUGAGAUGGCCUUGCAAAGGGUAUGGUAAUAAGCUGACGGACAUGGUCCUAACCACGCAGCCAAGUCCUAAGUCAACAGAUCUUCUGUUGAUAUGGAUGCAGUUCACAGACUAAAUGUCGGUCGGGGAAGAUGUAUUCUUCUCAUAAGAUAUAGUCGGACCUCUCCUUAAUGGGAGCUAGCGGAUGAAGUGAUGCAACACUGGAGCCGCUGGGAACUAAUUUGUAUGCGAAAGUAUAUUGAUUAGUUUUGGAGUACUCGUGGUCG
- recorded conditions: 30 °C
self-splicing fitness (ln) overview
Give your answer as a number; write no unit.

Quote self-splicing fitness (ln) reported for GCGAAGCAAUAUUACGUAAC please. -2.64

Quote self-splicing fitness (ln) reported for CGGGAGCAAUAUUACGCAUG please. -2.83

Quote self-splicing fitness (ln) reported for CGCCAGCAAUAUUACGACUG please. -0.729

Quote self-splicing fitness (ln) reported for AAAAAGCAAUAUUACGAAUC please. -2.31

Quote self-splicing fitness (ln) reported for UCCAAGCAAUAUUACGGCUC please. -3.84

Quote self-splicing fitness (ln) reported for GUGCAGCAAUAUUACGAAAU please. -1.31

* * *

- protocol text: self-splicing fitness, log relative to wild type (ln ratio); higher = more splicing; Tetrahymena group I intron in knt gene, E. coli kanamycin selection, DiMSum; sequences stand for … in CUCUCU…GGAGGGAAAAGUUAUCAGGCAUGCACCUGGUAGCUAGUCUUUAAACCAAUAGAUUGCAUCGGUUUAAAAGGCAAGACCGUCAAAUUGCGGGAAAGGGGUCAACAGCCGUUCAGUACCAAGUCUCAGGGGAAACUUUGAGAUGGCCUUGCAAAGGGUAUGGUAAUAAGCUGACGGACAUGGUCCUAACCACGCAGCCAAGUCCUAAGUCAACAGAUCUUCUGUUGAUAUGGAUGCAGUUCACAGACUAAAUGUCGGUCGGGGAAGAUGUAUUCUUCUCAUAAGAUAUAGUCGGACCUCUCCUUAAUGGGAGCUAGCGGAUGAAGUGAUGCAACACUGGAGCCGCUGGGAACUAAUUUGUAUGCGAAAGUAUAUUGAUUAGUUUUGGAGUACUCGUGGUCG
- recorded conditions: 37 °C
Assign class by self-splicing fitness (ln): not lower than -0.9 means Met; lower than -0.9 means Not met.

Check out these entries, answers already filled in.
         residue_string  classification
0  CAGGAGCAAUAUUACGCUCU         Not met
1  ACGUAGCAAUAUUACGAGGA         Not met
2  GGCUAGCAAUAUUACGACCU             Met
3  UCCCAGCAAUAUUACGUGGG         Not met
4  AAAUAGCAAUAUUACGUGUU         Not met

Check if self-splicing fitness (ln) >= -0.9 (inclusive). Item: ACAUAGCAAUAUUACGGCUU Met

Check if self-splicing fitness (ln) >= -0.9 (inclusive). Item: CAGAAGCAAUAUUACGUCUC Met
